# tgt: isolated apo-A. gambiae FMN-binding domain of CPR (Anopheles gambiae, UniProt Q86QH5)
# protocol.details: Isothermal titration calorimetry of FMN with apo-A. gambiae FMN-binding domain
# conditions: ITC, 25°C, 100 mM BES; A. gambiae apo-FMN domain
property: Kd (µM)
Number only, in µM; omit the unit.

## Input Which Kd is listed for Cc1cc2nc3c(=O)[nH]c(=O)nc-3n(C[C@H](O)[C@H](O)[C@H](O)COP(=O)(O)O)c2cc1C [FMN, flavin mononucleotide] ?
## Output 0.083

* * *

# tgt: UniProt Q86QH5
# protocol.details: Inhibition of cytochrome c (50 µM) reduction in phosphate-free 0.1 M Tris-HCl pH 7.7/0.1 M KCl, 25 °C, started with 12 µM (AgCPR) or 5 µM (hCPR) NADPH.
# Format: biochemical
# Parameters: Δ63AgCPR: soluble, membrane anchor (amino acids 2-63) deleted; His-tag removed by thrombin; expressed in E. coli
# conditions: SEM; read-out: IC50 µM (±S.E.), Tris Buffer
Reported IC50 values follow for various compounds
Number only, in µM; omit the unit.

## Input Which IC50 is listed for Nc1ncnc2c1ncn2[C@@H]1O[C@H](COP(=O)(O)O)[C@@H](O)[C@H]1OP(=O)(O)O [2′,5′-ADP, adenosine 2′,5′-diphosphate] ?
## Output 62

Further cases:
## Input Which IC50 is listed for Nc1ncnc2c1ncn2[C@@H]1O[C@H](CO)[C@@H](O)[C@H]1OP(=O)(O)O [2′-AMP, adenosine 2′-monophosphate] ?
## Output 384

* * *

# tgt: AgCPR (Anopheles gambiae NADPH-cytochrome P450 oxidoreductase) (Anopheles gambiae, UniProt Q86QH5)
# Sequence (Q86QH5 64-679): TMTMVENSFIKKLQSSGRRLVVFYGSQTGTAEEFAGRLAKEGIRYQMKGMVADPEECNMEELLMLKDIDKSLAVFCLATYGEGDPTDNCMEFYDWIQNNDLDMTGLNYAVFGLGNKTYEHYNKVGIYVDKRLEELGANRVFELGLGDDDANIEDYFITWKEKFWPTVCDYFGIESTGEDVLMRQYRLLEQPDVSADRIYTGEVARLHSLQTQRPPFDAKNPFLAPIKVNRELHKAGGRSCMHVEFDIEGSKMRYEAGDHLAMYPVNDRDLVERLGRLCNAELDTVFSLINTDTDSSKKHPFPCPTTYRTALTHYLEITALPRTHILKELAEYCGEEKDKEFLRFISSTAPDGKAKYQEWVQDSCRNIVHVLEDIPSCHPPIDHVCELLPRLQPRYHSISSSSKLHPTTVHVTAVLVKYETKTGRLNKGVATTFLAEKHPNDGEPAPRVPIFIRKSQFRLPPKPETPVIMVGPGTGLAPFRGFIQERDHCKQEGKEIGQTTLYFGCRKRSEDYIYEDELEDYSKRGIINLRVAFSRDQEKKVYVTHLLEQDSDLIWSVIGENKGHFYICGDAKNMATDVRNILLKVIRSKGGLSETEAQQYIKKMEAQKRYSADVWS
property: Kd (nM)
Number only, in nM; omit the unit.

## Input Which Kd is listed for Nc1ncnc2c1ncn2[C@@H]1O[C@H](CO)[C@@H](O)[C@H]1OP(=O)(O)O ?
## Output 4000

Attention now shifts to the item below.
## Input Which Kd is listed for Nc1ncnc2c1ncn2[C@@H]1O[C@H](COP(=O)(O)O)[C@@H](O)[C@H]1OP(=O)(O)O ?
## Output 410

* * *

# tgt: AgCPR (Anopheles gambiae, UniProt Q86QH5)
# protocol.details: Inhibition of cytochrome c (50 µM) reduction in 0.3 M potassium phosphate pH 7.7, 25 °C, started with 30 µM NADPH (AgCPR).
# Format: biochemical
# Design: Δ63AgCPR: soluble, membrane anchor (amino acids 2-63) deleted; His-tag removed by thrombin; expressed in E. coli
# conditions: SEM; read-out: IC50 µM (±S.E.), Phosphate Buffer
property: IC50 (µM)
Number only, in µM; omit the unit.

## Input Which IC50 is listed for Nc1ncnc2c1ncn2[C@@H]1O[C@H](COP(=O)(O)O)[C@@H](O)[C@H]1OP(=O)(O)O [2′,5′-ADP, adenosine 2′,5′-diphosphate] ?
## Output 262

Attention now shifts to the item below.
## Input Which IC50 is listed for Nc1ncnc2c1ncn2[C@@H]1O[C@H](CO)[C@@H](O)[C@H]1OP(=O)(O)O [2′-AMP, adenosine 2′-monophosphate] ?
## Output 1090

* * *

# tgt: AgCPR (Anopheles gambiae, UniProt Q86QH5)
# protocol.details: Inhibition of cytochrome c reduction by AgCPR
# Format: biochemical
# conditions: read-out: IC50 (±S.E.), inhibition of cytochrome c reduction
property: IC50 (µM)
Number only, in µM; omit the unit.

## Input Give the reported IC50 for Nc1ncnc2c1ncn2[C@@H]1O[C@H](CO)[C@@H](O)[C@H]1OP(=O)(O)O [2′-AMP] (system: AgCPR (Anopheles gambiae, UniProt Q86QH5)).
## Output 468

* * *

Reported pKd values follow for various compounds
# tgt: hCPR (Homo sapiens, UniProt P16435)
# protocol.details: Isothermal titration calorimetry of oxidised CPR with nucleotides in phosphate-free 100 mM BES, pH 7.0, 25 °C, single-site model; Kd = 1/Kobs.
Convention used: pKd is expressed as -log10 of the molar concentration.

## Input Which pKd is listed for Nc1ncnc2c1ncn2[C@@H]1O[C@H](CO)[C@@H](O)[C@H]1OP(=O)(O)O [2′-AMP, adenosine 2′-monophosphate] ?
## Output 5.80

Attention now shifts to the item below.
## Input Which pKd is listed for Nc1ncnc2c1ncn2[C@@H]1O[C@H](COP(=O)(O)O)[C@@H](O)[C@H]1OP(=O)(O)O [2′,5′-ADP, adenosine 2′,5′-diphosphate] ?
## Output 7.42

* * *

# tgt: isolated apo-human FMN-binding domain of CPR (Homo sapiens, UniProt P16435)
# protocol.details: Isothermal titration calorimetry of FMN with apo-human FMN-binding domain
# conditions: ITC, 25°C, 100 mM BES
property: pKd
Convention used: pKd is expressed as -log10 of the molar concentration.

## Input Which pKd is listed for Cc1cc2nc3c(=O)[nH]c(=O)nc-3n(C[C@H](O)[C@H](O)[C@H](O)COP(=O)(O)O)c2cc1C [FMN, flavin mononucleotide] ?
## Output 7.64

* * *

# tgt: hCPR (Homo sapiens)
# Sequence (P16435 43-677 limits assumed): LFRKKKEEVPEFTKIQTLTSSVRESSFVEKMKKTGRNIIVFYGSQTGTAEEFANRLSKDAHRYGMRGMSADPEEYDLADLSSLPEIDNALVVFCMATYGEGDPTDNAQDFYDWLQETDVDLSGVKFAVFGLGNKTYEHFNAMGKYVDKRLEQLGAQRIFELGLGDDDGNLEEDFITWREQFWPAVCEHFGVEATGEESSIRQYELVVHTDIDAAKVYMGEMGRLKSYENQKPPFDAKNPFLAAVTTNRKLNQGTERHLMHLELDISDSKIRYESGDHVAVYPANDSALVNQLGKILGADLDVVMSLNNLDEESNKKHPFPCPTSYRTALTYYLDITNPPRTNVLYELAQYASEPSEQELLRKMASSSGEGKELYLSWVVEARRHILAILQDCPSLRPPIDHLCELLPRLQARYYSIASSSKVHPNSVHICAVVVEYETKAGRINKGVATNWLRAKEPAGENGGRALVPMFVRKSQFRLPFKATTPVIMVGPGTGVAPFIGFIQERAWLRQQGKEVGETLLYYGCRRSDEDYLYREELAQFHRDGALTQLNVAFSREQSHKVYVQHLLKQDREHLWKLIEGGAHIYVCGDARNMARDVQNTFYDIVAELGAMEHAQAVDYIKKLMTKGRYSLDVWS
# protocol.details: Inhibition of cytochrome c reduction by hCPR
# Format: biochemical
# conditions: read-out: IC50 (±S.E.), inhibition of cytochrome c reduction
property: pIC50
Convention used: pIC50 is expressed as -log10 of the molar concentration.

## Input Which pIC50 is listed for Nc1ncnc2c1ncn2[C@@H]1O[C@H](CO)[C@@H](O)[C@H]1OP(=O)(O)O [2′-AMP] ?
## Output 3.33

* * *

# tgt: hCPR (Homo sapiens, UniProt P16435)
# protocol.details: Inhibition of cytochrome c reduction by hCPR
# Format: biochemical
# conditions: IC50 (±S.E.), inhibition of cytochrome c reduction, Human CPR, Phosphate Buffer (0.3 M potassium phosphate pH 7.7), 15 µM NADPH, 50 µM cytochrome c, 25°C
property: pIC50
Convention used: pIC50 is expressed as -log10 of the molar concentration.

## Input Which pIC50 is listed for Nc1ncnc2c1ncn2[C@@H]1O[C@H](COP(=O)(O)O)[C@@H](O)[C@H]1OP(=O)(O)O ?
## Output 4.55

Attention now shifts to the item below.
## Input Which pIC50 is listed for Nc1ncnc2c1ncn2[C@@H]1O[C@H](CO)[C@@H](O)[C@H]1OP(=O)(O)O ?
## Output 2.96
